# System: PPARg homodimer (NR concentration 180 nM)
# Method Notes: PBM binding z-score (relative to random genomic background probes); higher = stronger binding; sequences stand for … in GC…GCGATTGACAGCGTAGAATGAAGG
Recorded PBM binding z-score by entry
Keep the answer to the number alone.

Sample TCAAGTAGGTTACGGGGGCATTCAGGGATGAAGA — what was its PBM binding z-score?
3.45

Also check CGTCAAAGCTCAACTAAGGTAACGTAAAGCACGC
0.191

Also check ACTAGTTGCTCAGCTGAGGTCACACACAATTCGG
1.91

Also check TGAATGAGGTCAAAGATCAGGGAACGTGGCGTCG
2.17

Also check TCATATAGGTAAAAGGTCAAAGTCGGTGTGGTAA
5.82

Also check CCTAGTTGGTCAGGGGGTCACACACCGGATATGA
3.05
